Data origin, for the record: patent US20050058639A1

Reported ELISA OD by item:
# SUBJECT OF TEST: T1, human eotaxin (human, UniProt P51671 24-97)
# T1 construct: also called hEotaxin
# ASSAY SUMMARY: ELISA, coated antigen

BINDER	ELISA OD (OD450)
anti-MCP-1 mAb 3.4.1 (antibody, V domains shown) VH: QVQLVQSGAEVKKPGASVKVSCKVSGYTLTELSMHWVRQAPGKGLEWMGGFDPEDGETMYAQKFQGRVTMTEDTSTDTAYMELSSLRSEDTAVYYCATDDFWSGYFDYWGQGTLVTVSS VL: DIVMTQSPDSLAVSLDERATINCKSSQSVLYSPNQKNYLVWYQQKPGQPPKLLLYWASIRESGVPDRFSGSGSGTDFTLTISSLQAEDVAVYYCQQSYFTPWTFGQGTKVEIKR	0.048
anti-MCP-1 mAb 3.10.1 (antibody, V domains shown) VH: QVQLVQSGAEVKKPGASVKVSCKVSGYTLTELSMHWVRQAPGKGLEWMGGFDPEDGETIYAQKFQGRVMMTEDTSTDTAFMDLSSLRSEDTAVYYCATDDMLTPHYLYFGMDVWGQGTTVTVSS VL: DIQMTQSPSSLSASVGDRVTITCRASQGIRNDLGWYQQKPGKAPKRLIYATSSLQSGVPSRFSGSGSGTEFTLTISSLQPEDFATYYCLQHNTYPFTFGPGTKVDIKR	0.306
anti-MCP-1 mAb 1.11.1 (antibody, V domains shown) VH: QVQVVQSGAEVKNPGASVKVSCKVSGSTLTELSMHWVRQAPGKGLEWMGGFDPEDGETIYAQKFQGRVTMTEDTSTDTVYMELSSLRSEDTAVYYCATNDFWSGYFDYWGQGTLVTVSS VL: DIVMTQSPDSLAVSLGERATITCKSSQTVLYSSNNKNYLVWYQQKSGQPPKLLIHWASIRESGVPDRFSGSGSGTDFTLTISSLQAEDVAVYYCQQYYSSPWTFGQGTKVEIKR	0.049
anti-MCP-1 mAb 3.5.1 (antibody, V domains shown) VH: QVQLVQSGAEVKKPGASVKVSCKVSGYTLSELSMHWVRQAPGKGLEWMGGFDPEDDETIYAQKFQGRVTMTEDTSTDTAFMELSSLRSEDTAVYYCATHDFWSGYFHYWGQGTLVTVSS VL: DIVMTQSPDSLAVSLGERATINCKSSQSVLYSSDNKSYLVWYQQKPGQPPKVLIYWASIRESGVPDRFSGSGSGTDFTLTISSLQAEDVAVYYCQQYYTSPWTFGQGTKVEIKR	0.043
anti-MCP-1 mAb 5.3.1 (antibody, V domains shown) VH: QVQLVQSGAEVKKPGASVKVSCKVSGYTLSELSMHWVRQAPGKGLEWMGGFDPEDGETIYAQKFQGRVTMTEDTSTDTAYMELSSLRSEDTAVFYCATKREYSGYFDYWGQGTLVTVSS VL: DIVMTQSPDSLAVSLGERATINCKSSQSVLYSSNSKNYLAWFQQKPGQPPKLLIYWASTRESGVPDRFSGSGSGTDFTLTISRLQAEDVAVYSCQQYFITPWTFGQGTKVELKR	0.042
